assay-method-text: chemical genetic growth profiling, strain panel (AID 1159580);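 further: tested at 20 µM; growth read once vehicle control cultures reached saturation at 30 °C; 1 = growth at the plate median or of vehicle wells; lower values mean less growth of the strain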
details: S. cerevisiae deletion strains, growth OD, locus YNL020C, strain ARK1, hits give low values
Hit rate of the full screen: of about 5,500 compounds, about 2,000 (36%) were called active. Another 18% or so got no clear call; they are omitted. The list shows a part of the results.
Threshold 0.5. normalized growth below it: YES. normalized growth at it or above: NO.

| structure-smiles | label |
| --- | --- |
| CCOC(=O)c1ccc(Cl)c(N=Cc2cc(Cl)cc(Cl)c2O)c1 | YES |
| CC(=O)c1ccc(Cl)c(N=Cc2cc(Cl)cc(Cl)c2O)c1 | YES |
| OC(COc1ccc(F)cc1)(c1ccc(Cl)cc1)c1ccc(Cl)cc1 | NO |
| Cc1onc(-c2c(Cl)cccc2Cl)c1C(=O)O/N=C(/N)Cc1ccc(C(C)(C)C)cc1 | NO |
| Cc1c(C)c(C)c(C(=O)c2ccc(N=Cc3cc(Cl)cc(Cl)c3O)cc2)c(C)c1C | YES |

====

normalized growth values for the molecules below.
assay-method-text: chemical genetic growth profiling, strain panel (AID 1159580)
details: S. cerevisiae deletion strains, growth OD, locus YOL012C, strain htz1
The campaign covered roughly 5,500 compounds. About 2,000 (36%) were called active. About 18% were inconclusive and are not listed. The list shows a part of the results.
measured-metric: normalized growth

| molecule | meas-value |
| --- | --- |
| CC(C)CCCC(C)C1CCC2C3CC(=O)[C@H]4C[C@@H](O)CC[C@]4(C)C3CC[C@]12C (stereo not given in full) | 1.15 |
| NCCCCCCNS(=O)(=O)c1cccc2c(Cl)cccc12 | 0.747 |
| C=C1C[C@]23C[C@@]1(O)CC[C@H]2[C@@]12C=C[C@H](O)[C@@](C)(C(=O)O1)[C@H]2[C@@H]3C(=O)O | 1.07 |
| CC(=O)N[C@@H](Cc1c[nH]c2ccccc12)C(N)=O | 0.796 |
| CC(C)CCCC(C)[C@H]1CCC2C3CC=C4CC(=O)CC[C@]4(C)C3CC[C@@]21C (stereo not given in full) | 1.02 |

====

assay-method-text: chemical genetic growth profiling, strain panel (AID 1159580)
details: S. cerevisiae deletion strains, growth OD, locus YAL040C, strain CLN3, hits give low values
The campaign covered roughly 5,500 compounds. About 2,000 (36%) were called active. Inconclusive results (about 18%) are left out. The list shows a part of the results.
Threshold 1. normalized growth below it: Fulfilled. normalized growth at it or above: Not fulfilled.

| molecule | label |
| --- | --- |
| CC1(C)CCC=[N+]1[O-] | Not fulfilled |
| CCN1CCCC1CNC(=O)c1cc(S(N)(=O)=O)ccc1OC (stereo not drawn) | Fulfilled |
| CN(C)CCCN1c2ccccc2Sc2ccccc21 | Fulfilled |
| CC1c2cccc(O)c2C(O)=C2C(=O)C3(O)C(O)=C(C(N)=O)C(=O)C(N(C)C)C3C(O)C21 (stereo not drawn) | Fulfilled |

====

assay-method-text: chemical genetic growth profiling, strain panel (AID 1159580)
details: S. cerevisiae deletion strains, growth OD, locus YPL078C, strain atp4, hits give low values
Among all 5,500 compounds or so, about 2,000 (36%) were called active. Inconclusive results (about 18%) are left out. The list shows a part of the results.
normalized growth values for the compounds below.

| compound | normalized growth |
| --- | --- |
| CO[C@H]1CC(O[C@@H]2/C(C)=C/C[C@@H]3C[C@@H](C[C@]4(CC[C@H](C)[C@@H](C5CCCCC5)O4)O3)OC(=O)[C@@H]3C=C(C)/C(=N\O)[C@H]4OC/C(=C\C=C\[C@@H]2C)[C@]43O)O[C@@H](C)C1O (some centres not stated) | 1.03 |
| CC(C)=CCc1c2c(c3occ(-c4ccc(O)c(O)c4)c(=O)c3c1O)C=CC(C)(C)O2 | 0.957 |
| CC(=O)O[C@H]1CCC2(C)C3=C(CCC2C1(C)C)[C@@]1(C)CC[C@@H](C(C)CCC=C(C)C)[C@]1(C)CC3 (some centres not stated) | 1.02 |
| C[n+]1ccccc1/C=N/O | 0.992 |
| CC(=O)N[C@@H](Cc1c[nH]c2ccccc12)C(N)=O | 1.02 |
| CC(=O)O[C@H]1CCC2(C)C3=C(CCC2C1(C)C)[C@]1(C)CCC(C(C)CCC=C(C)C)[C@@]1(C)CC3 (some centres not stated) | 1.04 |
| O=P1(N(CCCl)CCCl)NCCCO1 (configuration not stated) | 0.991 |

====

normalized growth values for the molecules below.
assay-method-text: chemical genetic growth profiling, strain panel (AID 1159580);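 further: tested at 20 µM; growth read once vehicle control cultures reached saturation at 30 °C; 1 = growth at the plate median or of vehicle wells; lower values mean less growth of the strain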
details: S. cerevisiae deletion strains, growth OD, locus YDR318W, strain mcm21, hits give low values
The whole screen tested about 5,500 compounds, of which about 2,000 (36%) were called active. Inconclusive results (about 18%) are left out. This is one part of the list.
measured-metric: normalized growth

| molecule | meas-value |
| --- | --- |
| CC(=O)OCC(=O)[C@@]1(O)[C@H](C)CC2C3CCC4=CC(=O)C=C[C@]4(C)[C@@]3(F)[C@@H](O)C[C@@]21C (some centres not stated) | 0.999 |
| CC(C)=CCCC(C)[C@@H]1CC[C@]2(C)C3=C(CC[C@@]12C)C1(C)CC[C@H](O)C(C)(C)C1CC3 (some centres not stated) | 1.01 |
| C/C1=C\CC(C)(C)/C=C/CC2(C)OC2CC1 (configuration not stated) | 0.997 |
| CC(=O)Oc1c(Cl)c(C)c2c(c1Cl)OC(=O)c1c(C)c(Cl)c(OC(C)=O)c(Cl)c1O2 | 0.946 |
| CCCc1cc(=O)[nH]c(=S)[nH]1 | 0.985 |
| COc1c(C)c2c(c(C)c1Cl)Oc1c(Cl)c(OC)c(Cl)c(C)c1C(=O)O2 | 1.03 |
| COC(=O)c1c(OC)cc2c(c1C)Oc1c(Cl)c(OC(C)=O)c(Cl)c(C)c1C(=O)O2 | 1 |
| NC(=O)NC(=O)Cc1ccccc1 | 0.993 |
| Oc1cccc(O)c1 | 0.985 |
| CC(=O)O[C@H]1CCC2(C)C3=C(CCC2C1(C)C)[C@@]1(C)CC[C@@H](C(C)CCC=C(C)C)[C@]1(C)CC3 (some centres not stated) | 1.02 |
| CC[N+](C)(C)c1cccc(O)c1 | 0.971 |
| COc1cc(C/C=C/c2ccccc2)c(OC)cc1O | 0.989 |
| CC(C)=CCCC(C)C1CC[C@@]2(C)C3=C(CC[C@]12C)C1(C)CC[C@H](O)C(C)(C)C1CC3 (some centres not stated) | 0.985 |
| COC(=O)c1c(OC)cc2c(c1C)Oc1c(Cl)c(O)c(Cl)c(C)c1C(=O)O2 | 0.924 |
| CC(C)CCCC(C)C1CC[C@@]2(C)C3=C(CC[C@]12C)[C@@]1(C)CC[C@H](O)C(C)(C)C1CC3 (some centres not stated) | 0.974 |
| NC(Cn1ccc(=O)c(O)c1)C(=O)O (configuration not stated) | 0.992 |
| Cc1cc(=O)[nH]c(=S)[nH]1 | 1.03 |
| COC(=O)c1c(C)c2c(c(C)c1OC)OC(=O)c1c(C)c(Cl)c(OC)c(Cl)c1O2 | 1.02 |
| NCC(N)C(=O)c1ccccc1 (configuration not stated) | 1.01 |
| Cc1ccc2c(c1)C1(C)CCCC(C)(C(=O)O)C1CC2 (configuration not stated) | 1.02 |
| Cc1cc(=O)oc2cc(O)c(O)cc12 | 0.966 |
| CN(C)[C@@H]1C(=O)C(C(N)=O)=C(O)[C@@]2(O)C(=O)C3=C(O)c4c(O)ccc(Cl)c4[C@@](C)(O)[C@H]3C[C@@H]12 | 1 |

====

assay-method-text: chemical genetic growth profiling, strain panel (AID 1159580);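 further: tested at 20 µM; growth read once vehicle control cultures reached saturation at 30 °C; 1 = growth at the plate median or of vehicle wells; lower values mean less growth of the strain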
details: S. cerevisiae deletion strains, growth OD, locus YOR316C, strain cot1, hits give low values
Among all 5,500 compounds or so, about 2,000 (36%) were called active. About 18% were inconclusive and are not listed. This is one part of the list.

| molecule | normalized growth |
| --- | --- |
| NNCc1cccc(O)c1 | 0.994 (inactive) |
| CC(CCc1ccccc1)NCC(O)c1ccc(O)c(C(N)=O)c1 (stereo not given) | 1.02 (inactive) |
| COC(=O)/C(=C1\OC(=O)C(c2ccccc2)=C1O)c1ccccc1 | 0.981 (inactive) |
| CC(C)(C)NCC(O)c1ccc(O)c(CO)c1 (stereo not given) | 1.01 (inactive) |
| N=C(N)N | 0.965 (inactive) |

====

assay-method-text: chemical genetic growth profiling, strain panel (AID 1159580);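 further: tested at 20 µM; growth read once vehicle control cultures reached saturation at 30 °C; 1 = growth at the plate median or of vehicle wells; lower values mean less growth of the strain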
details: S. cerevisiae deletion strains, growth OD, locus YDR195W, strain ref2
Screen size: about 5,500 compounds; about 2,000 (36%) were called active. Roughly 18% stayed inconclusive and do not appear here. No stated cut-off is given here; in the data, active means normalized growth mostly below about 0.91 (no sharp cut-off); inconclusive means no clear call, values can overlap the other calls; inactive means mostly above about 0.92. The list shows a part of the results.
Classes used: true (active), false (inactive)

| compound | label |
| --- | --- |
| CC(=O)N[C@@H](Cc1c[nH]c2ccccc12)C(N)=O | false |
| CC(C)c1ccc2c(c1)CCC1C(C)(C(N)=O)CCCC21C (stereo not given) | false |
| Cc1cc(=O)oc2cc(O)c(O)cc12 | false |
| CC(=O)Oc1ccc(C(c2ccc(OC(C)=O)cc2)c2ccccn2)cc1 | false |
| CC(C)(C)NCC(O)c1ccc(O)c(CO)c1 (stereo not given) | false |
| CC(=O)c1cc(CC=C(C)C)c(O)c(CC=C(C)C)c1 | false |
| CC1=CC(=O)c2ccccc2C1=O | true |
| CCOC(=O)NNc1nncc2ccccc12 | false |
| COC(=O)c1c(C)c2c(c(C)c1O)OC(=O)c1c(C)c(Cl)c(O)c(Cl)c1O2 | false |
| O=C(O)c1cc(O)c2c(c1)[C@@H]([C@H]1c3cc(C(=O)O)cc(O)c3C(=O)c3c(O[C@H]4O[C@H](CO)[C@@H](O)[C@H](O)[C@H]4O)cccc31)c1cccc(O[C@H]3O[C@H](CO)[C@@H](O)[C@H](O)[C@H]3O)c1C2=O | true |
| NS(=O)(=O)c1cc2c(cc1Cl)NC(CSCc1ccccc1)=NS2(=O)=O | false |
| CC(=O)Oc1cccc(O)c1 | false |
| CCC(C)[C@H]1O[C@]2(C=C[C@@H]1C)C[C@@H]1C[C@@H](C/C=C(\C)[C@@H](OC3C[C@H](OC)C(O[C@H]4C[C@H](OC)[C@@H](O)[C@H](C)O4)[C@H](C)O3)[C@@H](C)/C=C/C=C3\CO[C@@H]4[C@H](O)C(C)=C[C@@H](C(=O)O1)[C@]34O)O2 (stereo not given in full) | true |
| CCN1CCN(C(=O)NC(C(=O)N[C@@H]2C(=O)N3[C@@H]2SC(C)(C)[C@@H]3C(=O)O)c2ccccc2)C(=O)C1=O (stereo not given in full) | false |
| CC(C)c1ccc2c(c1)CCC1[C@](C)(CN)CCC[C@]21C (stereo not given in full) | false |
| CC(=O)Oc1ccc(O)cc1 | false |
| CC1=CC(=O)c2c(O)cccc2C1=O | true |
| COC(=O)c1c(OC)cc2c(c1C)Oc1c(Cl)c(OC(C)=O)c(Cl)c(C)c1C(=O)O2 | false |
| CC(=O)c1ccc(O)c(CC=C(C)C)c1 | false |
| Cc1cn[nH]c1 | true |
